Give MIC for every item shown.
Provide only the numeric value, understood in µM.

Please look at CC[C@H](C)[C@H](NC(=O)[C@@H](NC(=O)[C@H](CO)NC(=O)[C@H](C)NC(=O)[C@@H](NC(=O)[C@H](CCCCN)NC(=O)[C@H](CCCN=C(N)N)NC(=O)[C@@H](NC(=O)[C@@H](NC(=O)[C@H](CC(=O)O)NC(=O)[C@H](Cc1ccccc1)NC(=O)[C@H](CC(C)C)NC(=O)CN)C(C)C)[C@@H](C)CC)C(C)C)C(C)C)C(=O)NCC(=O)NCC(=O)N[C@@H](CC(C)C)C(=O)O and tell me its recorded MIC on Candida albicans ATCC 90028.
19.5

Please look at CC(C)[C@@H]1NC(=O)[C@H](CCCN=C(N)N)NC(=O)[C@H](Cc2ccccc2)NC(=O)[C@@H](NC(=O)[C@H](Cc2c[nH]c3ccccc23)NC(=O)[C@@H](N)CCCCN)CSSC[C@@H](C(=O)N[C@@H](CCCN=C(N)N)C(=O)O)NC(=O)[C@H](CCCN=C(N)N)NC(=O)[C@H](CCCN=C(N)N)NC(=O)[C@H](Cc2ccc(O)cc2)NC(=O)[C@@H]2CSSC[C@H](NC1=O)C(=O)N[C@@H](Cc1ccc(O)cc1)C(=O)N[C@@H](CCCN=C(N)N)C(=O)NCC(=O)NCC(=O)N2 and tell me its recorded MIC on Candida albicans ATCC 90028.
3.62

---

// values below are MIC; system is Salmonella enterica subsp. enterica serovar Typhimurium C77-31

State, in one line, measured MIC of CC(C)C[C@H](NC(=O)[C@H](CCCN=C(N)N)NC(=O)[C@H](CCCCN)NC(=O)[C@H](CCCN=C(N)N)NC(=O)[C@@H](NC(=O)[C@H](CCCCN)NC(=O)[C@H](CCCCN)NC(=O)[C@H](CCCN=C(N)N)NC(=O)[C@H](CC(C)C)NC(=O)[C@H](CCCN=C(N)N)NC(=O)[C@@H](N)CCCN=C(N)N)[C@@H](C)O)C(=O)N[C@@H](CCCCN)C(N)=O [RRLRKKTRKRLK]
≥ 128 µM

State, in one line, measured MIC of C[C@@H](O)[C@H](NC(=O)[C@H](CCCN=C(N)N)NC(=O)[C@H](Cc1c[nH]c2ccccc12)NC(=O)[C@H](CCCN=C(N)N)NC(=O)[C@@H](NC(=O)[C@H](CCCN=C(N)N)NC(=O)[C@H](Cc1c[nH]c2ccccc12)NC(=O)[C@H](CCCN=C(N)N)NC(=O)[C@@H](NC(=O)[C@H](CCCN=C(N)N)NC(=O)[C@@H](N)Cc1c[nH]c2ccccc12)[C@@H](C)O)[C@@H](C)O)C(=O)N[C@@H](CCCN=C(N)N)C(N)=O [WRTRWRTRWRTR]
4 µM

State, in one line, measured MIC of CC[C@H](C)[C@H](NC(=O)[C@H](CCCCN)NC(=O)[C@@H](NC(=O)[C@@H](N)Cc1c[nH]c2ccccc12)[C@@H](C)CC)C(=O)N[C@@H](Cc1c[nH]c2ccccc12)C(=O)N[C@@H](CCCCN)C(=O)N[C@@H](CCCCN)C(=O)N[C@H](C(=O)N[C@H](C(=O)N[C@@H](CCCCN)C(=O)N[C@@H](CCCCN)C(=O)N[C@@H](Cc1c[nH]c2ccccc12)C(=O)N[C@@H](CCCCN)C(=O)N[C@@H](CCCCN)C(=O)O)[C@@H](C)CC)[C@@H](C)CC [WIKIWKKIIKKWKK]
≥ 128 µM

---

Measured metric: MIC (µM)
Provide only the numeric value, understood in µM.

Please look at CC[C@H](C)[C@H](NC(=O)[C@H](CCCCN)NC(=O)[C@H](CO)NC(=O)[C@H](Cc1ccccc1)NC(=O)[C@H](CC(C)C)NC(=O)[C@H](CCCCN)NC(=O)[C@H](CCC(=O)O)NC(=O)[C@H](CC(C)C)NC(=O)[C@H](CCCN=C(N)N)NC(=O)[C@H](CCCCN)NC(=O)[C@H](Cc1ccccc1)NC(=O)[C@@H](NC(=O)[C@H](CCCCN)NC(=O)[C@H](CCCCN)NC(=O)[C@H](C)N)C(C)C)C(=O)N[C@@H](CCC(N)=O)C(=O)N[C@@H](CC(N)=O)C(=O)N[C@@H](CC(=O)O)C(=O)N[C@@H](CCCCN)C(N)=O and tell me its recorded MIC on Trichosporon beigelii KCTC 7707.
3.13

Please look at CC[C@H](C)[C@H](NC(=O)CNC(=O)[C@@H](NC(=O)[C@H](CCCCN)NC(=O)[C@H](CCCCN)NC(=O)[C@H](Cc1ccccc1)NC(=O)[C@H](CC(C)C)NC(=O)[C@H](CCCCN)NC(=O)[C@H](Cc1c[nH]c2ccccc12)NC(=O)[C@H](CCCCN)NC(=O)[C@H](CCCCN)NC(=O)[C@H](CCCCN)NC(=O)[C@@H](N)CCCCN)[C@@H](C)CC)C(=O)NCC(=O)N[C@@H](CCCCN)C(=O)N[C@@H](Cc1ccccc1)C(=O)N[C@@H](CC(C)C)C(N)=O and tell me its recorded MIC on Trichosporon beigelii KCTC 7707.
6.25

Please look at CC(C)C[C@H](NC(=O)[C@H](CCCCN)NC(=O)[C@H](CCCCN)NC(=O)[C@H](Cc1c[nH]c2ccccc12)NC(=O)[C@@H](N)CCCCN)C(=O)N[C@@H](CC(C)C)C(=O)N[C@@H](CCCCN)C(=O)N[C@@H](CCCCN)C(=O)N1CCC[C@H]1C(=O)N[C@@H](CC(C)C)C(=O)N[C@@H](CC(C)C)C(=O)N[C@@H](CCCCN)C(=O)N[C@@H](CCCCN)C(N)=O and tell me its recorded MIC on Trichosporon beigelii KCTC 7707.
25

---

Give MIC for every item shown.
Provide only the numeric value, understood in µM.

Please look at CC[C@H](C)[C@H](NC(=O)CN)C(=O)N[C@@H](CC(C)C)C(=O)N[C@@H](CO)C(=O)N[C@@H](CO)C(=O)N[C@@H](CC(C)C)C(=O)N[C@@H](Cc1c[nH]c2ccccc12)C(=O)N[C@@H](CCCCN)C(=O)N[C@@H](CCCCN)C(=O)N[C@@H](CC(C)C)C(=O)N[C@@H](CCCCN)C(=O)N[C@@H](CCCCN)C(=O)N[C@H](C(=O)N[C@H](C(=O)N[C@@H](C)C(=O)N[C@@H](CCCCN)C(N)=O)[C@@H](C)CC)[C@@H](C)CC and tell me its recorded MIC on Staphylococcus aureus.
5

Please look at CC(C)C[C@H](NC(=O)[C@H](CCCCN)NC(=O)[C@H](Cc1ccccc1)NC(=O)[C@@H](NC(=O)[C@@H](NC(=O)[C@H](CCCCN)NC(=O)[C@H](CC(C)C)NC(=O)[C@@H](N)Cc1ccccc1)C(C)C)C(C)C)C(=O)N[C@@H](C)C(=O)N[C@@H](CO)C(=O)N[C@@H](CCCCN)C(=O)N[C@H](C(=O)N[C@@H](Cc1ccccc1)C(=O)N1CCC[C@H]1C(=O)N[C@@H](C)C(=O)N[C@H](C(=O)N[C@@H](Cc1ccccc1)C(=O)NCC(=O)N[C@@H](CCCCN)C(=O)N[C@H](C(=O)O)C(C)C)C(C)C)C(C)C and tell me its recorded MIC on Staphylococcus aureus.
1.8

Please look at CC(C)C[C@H](NC(=O)[C@H](CCCCN)NC(=O)[C@H](CCCN=C(N)N)NC(=O)[C@H](Cc1ccccc1)NC(=O)[C@H](Cc1ccccc1)NC(=O)[C@H](CCCCN)NC(=O)[C@H](CCCCN)NC(=O)[C@H](Cc1ccccc1)NC(=O)[C@H](CCCN=C(N)N)NC(=O)[C@H](CCCCN)NC(=O)[C@@H](N)C(C)C)C(=O)N[C@@H](CCCCN)C(=O)N[C@@H](CCCCN)C(=O)N[C@@H](CO)C(N)=O and tell me its recorded MIC on Staphylococcus aureus.
69.6

Please look at CC[C@H](C)[C@H](NC(=O)[C@H](Cc1cnc[nH]1)NC(=O)[C@H](CCCCN)NC(=O)[C@H](CC(C)C)NC(=O)[C@H](CC(C)C)NC(=O)[C@H](Cc1cnc[nH]1)NC(=O)[C@H](CCSC)NC(=O)[C@H](Cc1c[nH]c2ccccc12)NC(=O)[C@H](CCCCN)NC(=O)CN)C(=O)N[C@@H](CC(C)C)C(=O)N[C@@H](CCCCN)C(N)=O and tell me its recorded MIC on Staphylococcus aureus.
12.5

---

Give MIC for every item shown.
Provide only the numeric value, understood in µM.

Please look at CSCC[C@H](NC(=O)[C@@H](NC(=O)[C@@H](N)CCCCN)C(C)C)C(=O)N[C@@H](CCCN=C(N)N)C(=O)N[C@@H](CCCCN)C(=O)N[C@H](C(=O)N[C@@H](CC(C)C)C(=O)NCC(=O)N[C@@H](Cc1ccc(O)cc1)C(=O)N[C@@H](CC(C)C)C(=O)N[C@@H](CCCN=C(N)N)C(=O)N[C@@H](CC(N)=O)C(=O)N[C@H](C(=O)N[C@@H](Cc1ccc(O)cc1)C(=O)N[C@@H](CCCCN)C(N)=O)C(C)C)C(C)C and tell me its recorded MIC on Staphylococcus aureus ATCC 25923.
128

Please look at CC[C@H](C)[C@H](NC(=O)[C@H](CCCCN)NC(=O)[C@H](CCCCN)NC(=O)[C@H](C)NC(=O)[C@@H](NC(=O)[C@H](C)NC(=O)[C@H](CC(C)C)NC(=O)[C@H](CC(C)C)NC(=O)[C@H](C)NC(=O)[C@H](CCCCN)NC(=O)[C@H](CC(C)C)NC(=O)[C@H](CC(N)=O)NC(=O)[C@@H](N)CC(C)C)C(C)C)C(N)=O and tell me its recorded MIC on Staphylococcus aureus ATCC 25923.
64
